Origin of measurements: paper PMC9762759

Entries and their inhibition at 20 µM values follow.
MEASURED_TARGET: acid ceramidase (AC) (Homo sapiens, UniProt Q13510)
Construct: expressed in transfected cells
Sequence (Q13510 22-395): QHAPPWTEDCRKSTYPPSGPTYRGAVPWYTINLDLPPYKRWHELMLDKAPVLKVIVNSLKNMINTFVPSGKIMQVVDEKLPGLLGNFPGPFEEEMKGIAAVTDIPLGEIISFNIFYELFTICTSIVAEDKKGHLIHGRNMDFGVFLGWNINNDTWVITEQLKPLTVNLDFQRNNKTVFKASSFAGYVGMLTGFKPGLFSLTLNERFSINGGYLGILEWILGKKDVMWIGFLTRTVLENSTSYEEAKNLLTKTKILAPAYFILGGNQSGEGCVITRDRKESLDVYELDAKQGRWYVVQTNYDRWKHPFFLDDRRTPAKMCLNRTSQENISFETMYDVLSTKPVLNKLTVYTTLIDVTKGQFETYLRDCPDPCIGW
METHOD_DESCRIPTION: Acid ceramidase HTS assay, 384-well fluorogenic (RBM14-C12), cell lysates
Type: biochemical
EXPERIMENTAL_SETUP: primary assay, single-point concentration of 20 μM; lysates of AC-overexpressing A375 melanoma cells; substrate RBM14-C12 20 µM, pH 4.5

| MOLECULE | inhibition at 20 µM / % |
| --- | --- |
| CCC(CC)(c1ccc(OCC2(C(C)(C)C)OCCO2)c(C)c1)c1cc(C)c2oc(C(=O)NCC(=O)O)cc2c1 [W000113414_I13] | 67.4 |
| CC1CCCCN1C(=O)Nc1ccc(Oc2ccccc2)cc1 (stereo not drawn) [W000113402_O07] | 53.8 |
| Cc1ccc(CN2CC(C(=O)N(C)Cc3ccc(Cl)c(Cl)c3)CC2=O)cc1 (stereo not drawn) [W000113407_J11] | 59.2 |
| CC(C)(C)CC(=O)N1CCN(c2cccc(C(F)(F)F)c2)CC1 [W000113414_C16] | 59 |
| CN(CCc1ccccn1)S(=O)(=O)c1cccc(Br)c1 [W000113402_C12] | 75.5 |
| C=CCNC(=S)Nc1ccc(Cl)c([N+](=O)[O-])c1 [W000113403_I18] | 63.4 |
| Cc1cc(O[C@H](c2ccc(C(=O)NC[C@H](O)C(=O)O)s2)C(C)C)cc(C)c1-c1ccc(C(F)(F)F)cc1 [W000113414_H19] | 61.4 |
| CCCCc1ccc(C(=O)CCC2C(=O)c3ccccc3C2=O)cc1 [W000113414_D15] | 60.4 |
| CC(OC(=O)c1c2c(nc3ccccc13)/C(=C/c1cccs1)CC(C(C)(C)C)C2)C(=O)Nc1ccc(C(N)=O)cc1 (stereo not drawn) [W000113400_H06] | 41.7 |
